Tested On: Ataxin-2 (Homo sapiens)
Measurement Protocol: qHTS for Inhibitors of ATXN expression.
Format: functional
In all, about 400,000 compounds went through this assay and about 2,100 (0.53%) were called active. Another 14% or so got no clear call; they are omitted. The rule behind the calls is not given here. The sample holds actives, similar compounds and a random draw of the others, so the mix is not that of the screen.
Reply using exactly one outcome from Y for active, N for inactive

A selection of reference data follows.
Data request: Query: recorded result category for Cc1c(Cl)cccc1NC(=O)C1CCCN(C(=O)c2cnn(-c3ccccc3)c2-n2cccc2)C1 (stereo not given) in this test
Data returned: Y

Data request: What call does the record list for COc1ccc(-n2nc(C(=O)NCC(=O)Nc3ccc(F)cc3)c3ccccc3c2=O)cc1 ?
Data returned: N

Data request: Short answer needed: outcome of this test for COC(=O)C(=C/C(C)=C/c1cccnc1)C(=O)OC ?
Data returned: Y

Data request: # outcome recorded in this test, key = COc1ccc(NCC(=O)n2c(C)c(C)c3ccccc32)cc1
Data returned: N

Data request: Identify the outcome logged in this assay for the compound shown: Cc1cc(C)cc(NC(=O)Nc2ccccc2N2CCCCC2)c1
Data returned: N

Data request: // outcome(item) with item = Cc1cc(Cl)ccc1C(=O)C1CCCN(C(=O)/C=C/c2cnn(C)c2)C1 (stereo not given)
Data returned: N

New cases:
Data request: Recorded test call requested for Cc1c(CN2CCCC(C(=O)Nc3cccc(-n4cccn4)c3)C2)cnn1C (stereo not given)
Data returned: N

Data request: Can you look up the reported call for O=C(Nc1cccc(-c2csc(Nc3ccc(Cl)cc3)n2)c1)c1cc([N+](=O)[O-])cc(C(F)(F)F)c1 for me?
Data returned: Y

Data request: Per the assay record, what outcome was assigned to N#Cc1ccc(C(=O)CSc2nnc(O)n2-c2cccnc2)cc1 ?
Data returned: N

Data request: Lab log entry: CCN=C(S)N(CCc1c(C)[nH]c2ccc(C)cc12)Cc1cccnc1 — outcome as called in the assay?
Data returned: N

* * *

Tested On: Ataxin-2 (Homo sapiens)
Measurement Protocol: qHTS for Inhibitors of ATXN expression.
Assay type: functional
Among all 400,000 compounds or so, about 2,100 (0.53%) were called active. Another 14% or so got no clear call; they are omitted. How the calls were made is not given here. Only a selection was taken, and actives are over-represented in it overall.
The reply should name one outcome from true (1) = active, false (0) = inactive

Below, 5 molecules whose answers are already recorded.
Data request: Recorded test outcome, item Cc1ccc(-c2cn3nc(-c4ccccc4)c(-c4ccccc4)nc3n2)cc1
Data returned: false (0)

Data request: How did this test come out for Cn1c(C(=O)N2CCc3ccccc3C2)cc2c(=O)n3ccccc3nc21 ?
Data returned: false (0)

Data request: Returns: the outcome recorded for CC(=O)N(CC(=O)Nc1nn(-c2ccccc2)nc1C(N)=O)Cc1ccccc1 in this assay.
Data returned: true (1)

Data request: Hi, do you know how CC1CN(C(=O)c2cc3c(=O)n4ccccc4nc3n2C)CC(C)O1 (configuration not stated) came out in this test?
Data returned: false (0)

Data request: Dear colleague, could you share the recorded outcome for COC(=O)c1ccc(CSc2cc(C)c3ccccc3n2)o1 when you have a moment?
Data returned: false (0)

Next:
Data request: Called result for COc1ccc([N+](=O)[O-])cc1C(=O)Nc1ccc(Cc2ccncc2)cc1
Data returned: false (0)

Data request: Each molecule tested received a call. Report the one for CCc1cc(S)n2c(nc3ccccc32)c1C#N .
Data returned: false (0)

Data request: Lab log entry: O=C(NCc1ccc(Cl)cc1)C1CCCN(C(=O)c2ccc(Cl)cc2)C1 (configuration not stated) — outcome as called in the assay?
Data returned: false (0)

Data request: Fill in: this test's call for O=S(=O)(Nc1ccc(-c2cn3cccnc3n2)cc1)c1ccccc1 is ___
Data returned: false (0)

Data request: Can you look up the reported call for CC(C)=CCC/C(C)=C/CNC(=O)C[C@H]1C[C@H](C(=O)N2CCOCC2)[C@@]2(C)c3[nH]c4cc(-c5ccco5)ccc4c3CCN2C1=O for me?
Data returned: true (1)

Data request: Which outcome did this test record for the molecule COC(=O)c1ccc(-c2sc3nc(N4CCOCC4)c4c(c3c2N)CCCC4)o1 ?
Data returned: false (0)

Data request: Assay result, entry Cc1nc2ccccc2nc(C)c1=NOCc1cccc(F)c1 — outcome?
Data returned: false (0)

Data request: Per the records of this test, what outcome belongs to CN1CCN(C2=C(Cl)C(=O)c3ccccc3C2=O)CC1 ?
Data returned: true (1)

* * *

Tested On: Ataxin-2 (Homo sapiens) (UniProt Q99700)
Sequence (Q99700 whole entry): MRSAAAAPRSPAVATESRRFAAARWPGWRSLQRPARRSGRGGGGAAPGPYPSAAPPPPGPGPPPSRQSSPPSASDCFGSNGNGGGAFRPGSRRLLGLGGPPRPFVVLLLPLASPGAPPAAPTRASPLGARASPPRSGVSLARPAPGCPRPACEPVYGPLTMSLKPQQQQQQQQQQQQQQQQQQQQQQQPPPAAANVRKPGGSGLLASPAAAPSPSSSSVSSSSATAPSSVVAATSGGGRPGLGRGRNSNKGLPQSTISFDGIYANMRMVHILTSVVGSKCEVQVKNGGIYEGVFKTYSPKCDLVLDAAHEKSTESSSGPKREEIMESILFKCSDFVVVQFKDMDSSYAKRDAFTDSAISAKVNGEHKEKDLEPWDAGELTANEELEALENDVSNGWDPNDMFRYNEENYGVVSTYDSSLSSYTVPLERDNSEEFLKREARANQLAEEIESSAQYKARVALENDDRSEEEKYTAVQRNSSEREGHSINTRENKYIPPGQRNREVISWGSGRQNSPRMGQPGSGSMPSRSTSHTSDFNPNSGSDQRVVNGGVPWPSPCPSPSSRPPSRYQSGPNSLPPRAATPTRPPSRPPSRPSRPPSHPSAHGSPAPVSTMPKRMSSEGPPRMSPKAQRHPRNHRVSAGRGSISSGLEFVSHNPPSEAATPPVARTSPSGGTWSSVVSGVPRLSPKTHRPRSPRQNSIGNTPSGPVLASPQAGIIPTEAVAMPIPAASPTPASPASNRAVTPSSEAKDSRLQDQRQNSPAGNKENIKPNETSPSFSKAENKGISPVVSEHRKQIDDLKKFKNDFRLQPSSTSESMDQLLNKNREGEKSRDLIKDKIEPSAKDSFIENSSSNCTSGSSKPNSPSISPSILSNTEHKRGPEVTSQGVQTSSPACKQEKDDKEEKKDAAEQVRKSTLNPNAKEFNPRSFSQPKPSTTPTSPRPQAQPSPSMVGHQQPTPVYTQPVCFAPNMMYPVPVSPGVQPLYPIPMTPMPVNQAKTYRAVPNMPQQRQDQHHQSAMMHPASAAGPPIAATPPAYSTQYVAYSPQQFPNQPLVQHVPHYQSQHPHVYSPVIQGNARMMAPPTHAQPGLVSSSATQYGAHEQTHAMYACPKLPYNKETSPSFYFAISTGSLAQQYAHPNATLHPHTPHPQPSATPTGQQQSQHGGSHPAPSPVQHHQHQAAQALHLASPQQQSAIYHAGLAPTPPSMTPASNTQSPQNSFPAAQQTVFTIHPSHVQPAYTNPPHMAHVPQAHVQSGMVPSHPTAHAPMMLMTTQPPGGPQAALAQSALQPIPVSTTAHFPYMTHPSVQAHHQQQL
Measurement Protocol: qHTS for Inhibitors of ATXN expression.
Type: functional
In all, about 400,000 compounds went through this assay and about 2,100 (0.53%) were called active. Another 14% or so got no clear call; they are omitted. The full list was thinned out, with actives kept by preference.
Readout: Potency

The cases that follow already have their Potency on record.
Data request: Which Potency is listed for COCCNC(=O)c1c(N)n(-c2ccccc2)c2nc3ccccc3nc12 ?
Data returned: inactive

Data request: Look up Potency: COc1ccccc1N1C(=O)C2C(C(=O)c3ccccc3)=NN(c3ccccc3)C2C1=O (stereo not given)
Data returned: inactive

Data request: Tell me the measured Potency of Cc1ccc(-c2cc(C(=O)OCC(=O)N(C)C3CCS(=O)(=O)C3)c3ccccc3n2)o1 (stereo not given) , please.
Data returned: inactive

Data request: Can you look up the measured Potency of CC[C@@]1(c2ccccc2OC)ON(c2ccccc2C(F)(F)F)C1=O for me?
Data returned: 22.4 µM (active)

Consider the record given below.
Data request: // lookup Potency for COc1ccccc1-n1c([S-])c(C(=O)Nc2ccccc2C(F)(F)F)[n+]2ccc(C(=O)NCCO)cc12
Data returned: inactive

* * *

Tested On: Ataxin-2 (Homo sapiens)
Measurement Protocol: qHTS for Inhibitors of ATXN expression.
Format: functional
Screen size: about 400,000 compounds; about 2,100 (0.53%) were called active. Inconclusive results (about 14%) are left out. How the calls were made is not given here. The sample as a whole holds a higher share of actives than the screen did.
Thanks in advance; please answer with one of these: active, inactive

Data request: Give the logged outcome of this assay for the following compound: O=C(Cc1nc2ccccc2nc1O)c1ccccc1
Data returned: inactive

Data request: Check the results log: what was the call for C=C(C(=O)c1ccccc1)C(c1ccccc1)C(C)C(=O)c1ccccc1 (stereo unspecified) ?
Data returned: active

Data request: Tell me the assay call for CCOC(=O)Cc1cnc(NC(=O)CSc2nc(C)c(CC)c(O)n2)s1 please.
Data returned: inactive

Data request: For O=C(CN1C(=O)NC2(CCCCC2)C1=O)Nc1ccc2c(c1)CCC2 , what call appears in the results of this test?
Data returned: active

Data request: For O=C(CN1CCN(Cc2ccccc2)CC1)Nc1ccc2c(c1)CCC2 , which call appears in the assay record?
Data returned: inactive

Let us examine a further case.
Data request: Recorded test outcome, item CC(OC(=O)C1COc2ccccc2O1)C(=O)c1ccccc1 (stereo unspecified)
Data returned: inactive

* * *

Tested On: Ataxin-2 (Homo sapiens)
Measurement Protocol: qHTS for Inhibitors of ATXN expression.
Format: functional
About 2,100 (0.53%) of roughly 400,000 compounds were called active. Roughly 14% stayed inconclusive and do not appear here. How the calls were made is not given here. For the sample, actives were picked, then their nearest neighbours and some compounds at random.
Tick one outcome: active, inactive

Data request: Kindly provide the recorded test outcome for the following compound: Cn1c(N)c(C(=O)COC(=O)CCOc2ccc(C(C)(C)C)cc2)c(=O)n(C)c1=O
Data returned: inactive

Next:
Data request: GET /call?item= COCCCn1c(=N)c(C(=O)NCc2ccco2)cc2c(=O)n3cccc(C)c3nc21 returns the recorded outcome of this test.
Data returned: inactive

Data request: Please indicate how the test categorized COc1cc2c(cc1OC)C(c1ccccc1)N(C(=O)CCl)CC2 (stereo unspecified) .
Data returned: active

Data request: Field: outcome | Entry: Cc1nc2ccccc2n1/N=C/c1ccc([N+](=O)[O-])s1
Data returned: active

Data request: Query: recorded result category for c1ccc(-c2nc(N3CCCCC3)nc3ccccc23)cc1 in this test
Data returned: inactive

Data request: What was the test verdict on CSc1ccccc1NC(=O)c1cc(C2CC2)on1 ?
Data returned: inactive

Data request: Dear colleague, could you share the recorded outcome for O=[N+]([O-])c1ccc(S(=O)(=O)c2ccccc2)nc1 when you have a moment?
Data returned: active

Data request: Which result was noted for this compound in the test: Cc1ccccc1NCc1ccc([N+](=O)[O-])s1
Data returned: inactive

Data request: Please state the recorded outcome for this compound: CCOC(=O)C1CCCN(CCC(=O)Nc2cc(C)ccc2C)C1 (stereo unspecified)
Data returned: inactive

* * *

Tested On: Ataxin-2 (Homo sapiens) (UniProt Q99700)
Measurement Protocol: qHTS for Inhibitors of ATXN expression.
Type: functional
Among all 400,000 compounds or so, about 2,100 (0.53%) were called active. Not shown: some 14% with an inconclusive outcome. How the calls were made is not given here. The full list was thinned out, with actives kept by preference.
Classes to choose from: 1 (yes) (active), 0 (no) (inactive)

These solved cases illustrate the format of a correct answer.
Data request: Test call, this compound: COc1ccc(C2CC(c3ccc4ccccc4c3)=NN2C(=O)CNC2CCCCC2)cc1 (stereo not given)
Data returned: 1 (yes)

Data request: State the result this test recorded for CCCCCc1c(-c2cccc(Br)c2)ncn1CCc1ccccc1OC .
Data returned: 1 (yes)

Data request: Look up the recorded call for CN1/C(=C/C=C/c2n(C)c3cc([N+](=O)[O-])c([N+](=O)[O-])cc3[n+]2C)C(C)(C)c2ccccc21 in this test.
Data returned: 1 (yes)

Data request: # outcome recorded in this test, key = CC1(C)C/C(=N\O)C(C(O)c2cccc([N+](=O)[O-])c2)C(C)(C)N1 (stereo not given)
Data returned: 0 (no)

Data request: Each compound tested received a call. Report the one for COc1ccc(C2CC(c3ccc(OC)cc3OC(C)=O)=NN2C(=O)c2ccccc2)cc1 (stereo not given) .
Data returned: 0 (no)

Further cases:
Data request: How was CN(C)c1nc(NCc2ccccc2)nc(N/N=C/c2ccc(Cl)cc2Cl)n1 classified in this test?
Data returned: 0 (no)

Data request: Any idea what this test logged for CCCCc1c(-c2cccc(Br)c2)ncn1CCc1ccccc1OC ?
Data returned: 1 (yes)

Data request: Recorded test call requested for O=C1OCCN1C(=O)[C@H]1[C@H](c2ccccc2)C(c2cccc(Cl)c2)=NN1c1ccccc1
Data returned: 0 (no)

Data request: Outcome logged for COc1ccc(-c2cc3ccc(O)cc3oc2=O)cc1 in this assay:
Data returned: 0 (no)

Data request: Which result was noted for this compound in the test: CCC(=O)Nc1cccc(C2=NN(c3ccccc3)C(c3ccc(OC)cc3)C2)c1 (stereo not given)
Data returned: 0 (no)
